# METHOD_SUMMARY: NCI Yeast Anticancer Drug Screen. Data for the wt1 strain (AID 149);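 further: 0% = growth of vehicle-treated wt1 cultures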
# RUN_PARAMETERS: S. cerevisiae wt1 strain (SPY 50644) growth inhibition; at 11.0 µM; hits give high values
The panel holds about 79,000 compounds, 15% with a hit somewhere; the sample as a whole holds those more often.
MEASUREMENT_TYPE: growth inhibition (%)
Write the number in % without appending the unit.

In [3]: df
Out[3]:
              compound  recorded_measurement
0  CCOC(=S)SSSC(=S)OCC                    31

I am curious: what growth inhibition value has been reported for c1c[nH]c(CN2CCN(Cc3ncc[nH]3)CC2)n1 ?
97

I am curious: what growth inhibition value has been reported for O=C1c2ccccc2-c2cc3ccccc3c(=O)n21 ?
31
